method: Elimination half life in Sprague-Dawley rat at 0.1 mg/kg, iv administered as cassette dose by LC-MS/MS analysis
Format: ADME, organism-based
conditionNotes: in vivo, read-out: beta t1/2
Numbered stars: 1 amine (or outer) side, 2 acyl side, 3 side chain; on linkers, the order of the positions; unused ones are H or OH. Bridge positions count the residues as written; N and C are the ends. Square brackets hold non-standard residues; d marks the D form. Peptide text beside a SMILES is read from it. * marks the point of attachment. Phe(4-Cl) = N[C@@H](Cc1ccc(Cl)cc1)C(=O)O; 2Thi = N[C@@H](Cc1cccs1)C(=O)O; Agmatine = N=C(N)NCCCCN*; X1 = O=C(CCC[*:2])[*:1]; NEt2 = CCN(CC)*
readoutType: half-life (min)

# compound, readoutType, unitSymbol, readoutValue
measured = [
    ("CCN(CC)C(=O)[C@@H](CCCNC(=N)N)NC(=O)[C@@H]1CCCN1C(=O)[C@@H]1CSCCCC(=O)N[C@@H](Cc2ccc(Cl)cc2)C(=O)N[C@@H](Cc2cccs2)C(=O)N[C@@H](C(C)C)C(=O)N[C@@H](CC(N)=O)C(=O)N1 ([Phe(4-Cl)][2Thi]VNCP[dR]-NEt2; linker N-5 via X1)", "half-life", "min", 6.4),
    ("CC(C)[C@@H]1NC(=O)[C@H](Cc2cccs2)NC(=O)[C@H](Cc2ccc(Cl)cc2)NC(=O)CCCSC[C@@H](C(=O)N2CCC[C@H]2C(=O)NCCCCNC(=N)N)NC(=O)[C@H](CC(N)=O)NC1=O ([Phe(4-Cl)][2Thi]VNCP-Agmatine; linker N-5 via X1)", "half-life", "min", 16),
]

Value source: ChEMBL document CHEMBL4396873
